Assay: yeast display, Sf9 membrane polyspecificity reagent, FACS + sequencing; frameworks hold sequencing errors
measurement.name: polyreactivity (PSR sort gate)

As a guide, the following entries are already answered.
seq_string=QVQLVESGGGLVQAGGSLRLSCAASGSTFVGNAMGWYRQAPGKERELVAAITGGGGSTYYADSVKGRFTISRDNAKNSVYLQMNSLKPEDTAVDYCARDRTDYYVWYVRYYYWGQGTQVTVSS observed_measurement="low polyreactivity"
seq_string=QVQLVESGGGLVQAGGSLRLSCAASGRIFGINAMGWYRQAPGKERELVAAINWSGGSTYYADSVKGRFTISRDNAKNTVYLQMNSLKPEDTAVYYCAAQKYKRVGYWGQGTQVTVSS observed_measurement="high polyreactivity"
seq_string=QVQLVESGGGLVQAGGSLRISCAASGIIFGEYAMGWYRQAPGKERELVAAISQSGGTYYADSVKGRFTISRDNAKNTVYLQMNSLKPEDTAVYYCNADYWAYISRVRYDYWGQGTQVTVSS observed_measurement="low polyreactivity"
seq_string=QVQLVESGGGLVQAGGSLRLSCAASGNIFQRYAMGWYRQAPGKERDLVAAISYSGARTYYADSVKGRFTISRDNAKNTDYLQMNSLKPEDTAVYYCATYGGLTKFRLAYDYWGQGTQVTVSS observed_measurement="high polyreactivity"
seq_string=QVQLVESGGGLVQAGGSLRLSCAASGRIFKWYAMGWYRQAPGKERELVAAISRSGGTTYYADSVKGRFTISSDNAKNTDYLQMNSLKPEDTAVYYCATRNIYFSTVDYWGQGTQVTVSS observed_measurement="high polyreactivity"

Need polyreactivity (PSR sort gate) for each of these sequences.
1. QVQLVESWGGLVQAGGSLRLSCAASGSLFTSNAMVWYRQAPGKEREFVAGIDYSTGGTSYADSVKGRFTISRDNAKNNVYLQMNRLLPEDTAVYYCNADRWLVYVHTWEYDYWGQGTQVTVSS
2. QVQLEESGGGLVQAGGSLRLSCAASGSTFYDYAMGWYRQAPGKERELVAAINGNGDSTYYADSVKGRFTISRDNAKNTVYLQMNSLKPEDTAVYYCAAYLGWGYDYWGQGTLVTVSS
3. QVQLVESGGGLVQAGGSLRLSCAASGYIFTGNAMGWYRQAPGKERELVAAISKSGSRTYYADSVKGRFTISRDNAKNTVYLQMNSLKPEDTAVYYCNAYSARDSELDYWGQGTQVTVSS
4. QVQLVESGGGIVQAGGSLRLSCAASGFTCGPYAMGWYRQAPGKERELVATIRSGDSTNYADSVKGRFTISRDNAKNTVYLQMNSLKPEDTAVYYCARDARASARRKRYDYWGQGTQVTVSS

Response given:
low polyreactivity
low polyreactivity
high polyreactivity
low polyreactivity

Please go through the list and note polyreactivity (PSR sort gate) for each sequence.
1. QVQIVESGGGLVQAGGSLRLSCAASGSTSTLNAMGWYRQAPGTERELVAAISRSGTSTYFADSVKGRFTISRDNAKNTVYLQMNSLKPEDTADYYCAAYSYGPPYYYWGQGTQVTVSS
2. QVQLVESGGCLVQAGGSLRLSCAASGSIFVYYAMGWYRQSPGKERELVAAISWSGGSTRYADSVKGRFTISRDNAKNTVYLQMNSLKPEDTAVYYCAAKRLGGGYWGQGTQVTVSS
3. QVQLVESGGGLVQAGGSLRLSCAASGRTFRFYAMGWYRPAPGKERELVAGITRSGGGTYYADSVKGRFTISRDNAKNTVYLQMNSLKPEDTAVYYCAATHAYLGYGYWGQGTQVTVSS
4. QVQLVESGGGLVQSGGSLRLSCAASGRTFRYYAMGWYRQAPGKERELVAAISWNGANTYYADSVKGRFTISRDNAKNTVYLQMNSLKPEDTAVYYCAATYYRWKGYDYWGQGTQVNVSS
5. QVQLVESGGGLVQAGCSLRLSCAASGRTFCYNSMGLYRQAPGKERELVAAISTSGGSTYYADSVKGRFTISRDNAKNTVYLQMNSLKPEDSAVYSCAADSHRSFSLYAYDSWGLGTQVTVSS

Response given:
high polyreactivity
high polyreactivity
high polyreactivity
high polyreactivity
low polyreactivity

Hey, can you go through the list below and give me polyreactivity (PSR sort gate) for every item?
1. QVQLVESGGGLVQAGGSLRLSCAASGIIFYDYAMGWYRQAPGKERELVASISWSSGSTYYADSVKGRFTISRDNAKNTVYLQMNSLKPEDTAVYYCAADGYPLQLYNYWGQGTQVTVSS
2. QVQLVESGGGLVQAGGSLRLSCAASGSTFRRNDMGWYRQAPGKERELVAAITSGGITNYADSVKGRFTISRDNAKNTVYLQMNSLKPEDTAVYYCNKDSDLHHYHTEFDYWGQGTQVTVSS
3. QVQLVESGGGLVQAGGSLRLSWAASGRIIYGYAMGWYRQAPGKERELVAAITATYYADSVKGRFTISRDNAKNTVYLQMNSLKPEDTAVYYCNAYLYPKQPLSPPDPTFEGGYWGQGTQVTVSS
4. QVQLVESGGGLVQAGGSLRLSCAASGITFYGNAMGWYRQAPGNERELVAAITFSGGITYYADSVKGRFTISRDNAKNTVYLQMNSLKPEDTAVYDCATDPIGGWTRPQRYGDDYWGQGTQVTVSS
5. QVQLVESGGGLVQAGGSLRLSCAASGSTFQPYAMGWYRQAPGKEREFVATISGSAGSTYYADSVKGRFKISRDNAKNTVYLQMNSLKPEDTAVYYCNADSGWFGYDYWGQGTQVTVSS
6. QVQLVESGGGLVQAGGSLRLSCAASGIIFRVYAMGWYRQAPGKERELVATITWSGGSTFYADSVKGRFTISRDNAKNTVYLQMNSLKPEDTAVYYCAARFLWSVFGRKGGYWGQGTQVTVSS

Response given:
1. low polyreactivity
2. low polyreactivity
3. low polyreactivity
4. low polyreactivity
5. low polyreactivity
6. low polyreactivity

Challenge: Fill in polyreactivity (PSR sort gate) for record `QVQLVESGGGLVQAGGSLRLSCAASGIIFVRYAMGWYRQAPGKERELVAAISWSGGSTYYADSVKGRFTISRDNAKNTVYLQMNSLKPEDTAVYYCAADSHRTRGDARYYYWGQGTQVTVSS`
Response given: high polyreactivity
